procedure summary: physchem
Assay type: physicochemical
experimental conditions: pH 6.8, aqueous buffer, solubility
reported endpoint: solubility

Problem: Item CNCC[C@@H](Oc1ccccc1C)c1ccccc1.Cl [Atomoxetine HCl] has what recorded solubility?
Result: 2700 to 3500 µg/mL

----------
procedure summary: physchem
Format: physicochemical
experimental conditions: pH 7.4, aqueous buffer, Absolute Solubility
reported endpoint: solubility (µg/mL)
The response must be a number in µg/mL with no trailing unit.

Problem: Item CNCC[C@@H](Oc1ccccc1C)c1ccccc1.Cl [Atomoxetine HCl] has what recorded solubility?
Result: 2750

----------
procedure summary: physchem
Format: physicochemical
experimental conditions: aqueous buffer, Absolute Solubility
From the text: Atomoxetine HCl (API, active pharmaceutical ingredient) has good aqueous solubility. […] Human saliva has a pH normal range of 6.2-7.6 with 6.7 being the average pH. […] In the oral cavity, the pH is maintained near neutrality (6.7-7.3) by the saliva. It is also evident that the solubilized form of atomoxetine is going to have a direct impact on taste buds thereby causing immediate bitterness upon drinking the oral solution.
reported endpoint: solubility (mg/mL)
The response must be a number in mg/mL with no trailing unit.

Problem: Item CNCC[C@@H](Oc1ccccc1C)c1ccccc1.Cl [Atomoxetine HCl] has what recorded solubility?
Result: 12.2

Where these numbers come from: patent US20250345436A1
